Entry source: PubChem BioAssay (NCI)

# System: SNB-19 CNS
# protocol: NCI-60 one-dose screen, 48 h (100 = growth as untreated, 0 = no growth, -100 = all killed)
# setup-conditions: 10 µM unless noted
Compounds without any hit were thinned out: in the full panel of roughly 83,000, 20% have a hit.
readout-label: growth (%)

compound	value
CC1c2ccccc2-c2ccccc2N1C (stereo not drawn)	97.3
Cc1ccc(OCC(=O)Nc2ccc(Oc3ccccc3)cc2)c([N+](=O)[O-])n1	58.7
COc1ccc(-c2cnc(SCC(=O)Nc3ccc(-c4nc5ccccc5s4)cc3)n2-c2ccc(OC)cc2)cc1	98.8
C[C@H]1O[C@@H](O[C@H]2[C@@H](O)C[C@H](O[C@H]3[C@@H](O)C[C@H](O[C@H]4CC[C@]5(C)C6C[C@@H](O)[C@]7(C)[C@@H](C8=CC(=O)OC8)CC[C@]7(O)C6CC[C@@H]5C4)O[C@@H]3C)O[C@@H]2C)C[C@H](O)[C@@H]1O (stereo partly drawn)	-100
CCCCOP(=O)(OCCCC)C(C(=O)OCC)C(CC(=O)OCC)C(=O)OCC (stereo not drawn)	100
c1ccc2c(-c3nc4ccccc4[nH]3)cccc2c1	52.5
OCc1n(Cc2ccc3ccccc3c2)cc[n+]1Cc1ccc2ccccc2c1	44.5
CCOC(=O)c1sc(NC(=O)COc2cccc(/C=C3\Cc4ccc(Cl)cc4C3=O)c2)nc1C	99.9
